- Test system: U251 CNS
- run-description: NCI-60 one-dose screen, 48 h
- particulars: 10 µM unless noted
About 83,000 compounds went through this panel and 20% of them were active in at least one assay; those are over-represented in the sample as a whole. Active and inactive are the calls of the source. The calls were made as follows: active = growth percent below 10; inactive = the rest.
Pick from y = active, n = inactive when you respond.

>>> group("COc1ccc(NC(=S)NNc2ccc(-c3ccc(OC)c(OC)c3)nn2)cc1")
"n"
>>> group("Nc1nnc(CSc2nnc3n(Cc4ccccc4)c(=O)c4c5c(sc4n23)CCCC5)s1")
"n"
>>> group("CCN(CC)c1ccc2cc(C(Nc3ccc(Cl)cc3)c3nnnn3C(C)(C)C)c(=O)oc2c1 (stereo unspecified)")
"n"
>>> group("C=C(C)[C@@H]1CC[C@]2(c3ncc(C)o3)CC[C@]3(C)[C@H](CC[C@@H]4[C@@](C)(CCC#N)[C@H](C(=C)C)CC[C@]43C)[C@@H]12")
"y"
>>> group("CCCCOC(=O)c1cccc([N+](=O)[O-])c1")
"n"
>>> group("COc1cc(NCc2ccccc2O)c2ncccc2c1")
"n"
>>> group("CCNc1cc2c(cc1Br)-c1ccccc1C2=O")
"n"
>>> group("O=C1COCCN1c1ccc(NCc2cn(Cc3ccccc3)c3ccccc23)cc1")
"n"
>>> group("Fc1cc2[nH]ncc2c2c3c(c(-c4cn[nH]c4C(F)(F)F)nc12)C1CCC3C1 (stereo unspecified)")
"y"
>>> group("Cc1cc(-c2ccc(N=Nc3c(S(=O)(=O)O)cc4cc(S(=O)(=O)O)cc(N)c4c3O)c(C)c2)ccc1N=Nc1cc(S(=O)(=O)O)c2ccccc2c1O")
"n"

What did the test return for "COc1ccc(C(=O)CCC(=O)O)cc1" ?
n

What did the test return for "CN(C)c1ccc(N=Nc2ccc3ccccc3c2)cc1" ?
n

What did the test return for "O=C(NNc1ccc(-c2ccccc2)nn1)c1ccc(F)cc1" ?
n

What did the test return for "Cn1cc(-c2noc(-c3cn(C)c4ncc(F)cc34)n2)c2cc(Br)ccc21" ?
n

What did the test return for "Cc1cc(N2CCCCCC2)nc(N2CCN(CC(=O)Nc3ccc4c(ccn4Cc4ccccc4)c3)CC2)n1" ?
n

What did the test return for "COc1cc(C(=O)/C=C/c2c(-c3ccc(F)cc3)nc3sccn23)cc(OC)c1OC" ?
y

What did the test return for "Cn1cc(-c2noc(C(=O)c3cn(C)c4ncccc34)n2)c2ccccc21" ?
n

What did the test return for "CCN(CC)c1ccc(/C=C/C=C2\NC(=O)NC2=O)cc1" ?
n

What did the test return for CCOC(=O)C(C(C)=O)c1nc2sc3cc(Cl)c(Cl)cc3n2c(=O)c1C#N (stereo unspecified) ?
n

What did the test return for "CSc1cccc([N+](=O)[O-])c1" ?
n

What did the test return for "CCOc1cc(NC(=O)c2ccccc2)c(OCC)cc1N" ?
n
